Cited source: patent US20260274955A1

# Assay System: T1, Anti-CD28 Fab (SEQ ID NOs: 202, 203)
# T1 construct: biotinylated and captured on neutravidin coated plates in the phage ELISA
# T1 sequence (VH, as listed by the source, chain 1 of 2): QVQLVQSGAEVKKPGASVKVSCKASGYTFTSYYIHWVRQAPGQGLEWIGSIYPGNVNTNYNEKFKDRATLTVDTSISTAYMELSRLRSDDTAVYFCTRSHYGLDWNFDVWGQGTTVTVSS
# T1 sequence (VL, as listed by the source, chain 2 of 2): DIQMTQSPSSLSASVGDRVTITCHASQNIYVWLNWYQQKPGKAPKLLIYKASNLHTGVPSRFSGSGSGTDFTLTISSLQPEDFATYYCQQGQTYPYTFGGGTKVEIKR
# Test Summary: phage ELISA, Fab on plate;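 further: crude clonal phage supernatants added to wells pretreated with blocking buffer with or without CD28 antigen, then bound phage read out via HRP-linked anti-M13 antibody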
Readout: Anti-CD28 Fab (SEQ ID NOs: 202, 203) signal

Binder	Assay Result
YCEGHAGVYMAKCL [Phage-708]	1.17
YCEGHSQQYMQKCL [Phage-605]	1.42
YCEGHSAVYMSKCL [Phage-663]	1.31
YCDGHLPEYIAKCQ [Phage-600]	1.43
YCEGHVAEYRAKCL [Phage-720]	1.15
YCEGHLDEYLQKCL [Phage-626]	1.38
YCDGHRAEYMLKCL [Phage-668]	1.29
YCAGHAPEYISKCL [Phage-702]	1.21
